Biological target: GST-Nv-NF-kB (Cys allele) (Nematostella vectensis, UniProt E5G601 2-411)
Sequence: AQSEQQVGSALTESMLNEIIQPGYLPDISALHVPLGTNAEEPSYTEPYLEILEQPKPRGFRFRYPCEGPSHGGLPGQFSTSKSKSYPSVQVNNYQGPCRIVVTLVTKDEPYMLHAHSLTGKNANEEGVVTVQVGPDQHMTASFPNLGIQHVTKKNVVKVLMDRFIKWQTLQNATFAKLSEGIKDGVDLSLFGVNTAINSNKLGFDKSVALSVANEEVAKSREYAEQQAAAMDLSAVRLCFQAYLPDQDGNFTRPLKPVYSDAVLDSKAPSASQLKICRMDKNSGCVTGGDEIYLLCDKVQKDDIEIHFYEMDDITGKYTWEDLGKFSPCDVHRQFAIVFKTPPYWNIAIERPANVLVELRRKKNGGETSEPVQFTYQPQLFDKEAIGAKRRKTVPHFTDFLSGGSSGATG
Assay: protein-binding microarray (PBM); PBM: ~300 nM protein, 6 mM HEPES pH 7.8, 80 mM KCl, 0.5 mM EDTA, 0.5 mM EGTA, 6% glycerol, 35 ng/ul poly-dIdC, 1% milk, 1 h, room temperature; high values mean tight binding
Settings: dsDNA, one strand shown
Binary classification by binding signal, with 4 z-score as an inclusive lower bound for satisfied; all other cases are not satisfied.

1) CCGATTAACATCAGGGGGAAAAATGATGTTAATCGGGTCTTGATTCGCTTGACGCTGCTG: satisfied
2) CCGATTAACATCAGGGGGACTAATGATGTTAATCGGGTCTTGATTCGCTTGACGCTGCTG: satisfied
3) CCGATTAACATCAGGGCAGCCCCTGATGTTAATCGGGTCTTGATTCGCTTGACGCTGCTG: satisfied
4) CCGATTAACATCAGGGATTTTTATGATGTTAATCGGGTCTTGATTCGCTTGACGCTGCTG: satisfied
5) CCGATTAACATCACGGTAATTCCTGATGTTAATCGGGTCTTGATTCGCTTGACGCTGCTG: not satisfied

Test whether the sequence `CCGATTAACATCAGGACGTTCCCTGATGTTAATCGGGTCTTGATTCGCTTGACGCTGCTG` records binding signal of 4 z-score or higher.
not satisfied

Next up: `CCGATTAACATCAGAAGTTCCCCTGATGTTAATCGGGTCTTGATTCGCTTGACGCTGCTG`
satisfied

Next up: `CCGATTAACATCAGGGGAAGAAATGATGTTAATCGGGTCTTGATTCGCTTGACGCTGCTG`
satisfied

Next up: `CCGATTAACATCAACGGGAACTCTGATGTTAATCGGGTCTTGATTCGCTTGACGCTGCTG`
not satisfied

Next up: `CCGATTAACATCAATTTTTCCCCTGATGTTAATCGGGTCTTGATTCGCTTGACGCTGCTG`
satisfied

Next up: `CCGATTAACATCAATTCCCAAGGTGATGTTAATCGGGTCTTGATTCGCTTGACGCTGCTG`
not satisfied

Next up: `CCGATTAACATCACAGAGTCCCCTGATGTTAATCGGGTCTTGATTCGCTTGACGCTGCTG`
satisfied

Next up: `CCGATTAACATCACGGGTTTTCCTGATGTTAATCGGGTCTTGATTCGCTTGACGCTGCTG`
not satisfied

Next up: `CCGATTAACATCAGGGGAAGTTATGATGTTAATCGGGTCTTGATTCGCTTGACGCTGCTG`
satisfied

Next up: `CCGATTAACATCAGGCATACCCCTGATGTTAATCGGGTCTTGATTCGCTTGACGCTGCTG`
not satisfied

Next up: `CCGATTAACATCAGGATACCCCCTGATGTTAATCGGGTCTTGATTCGCTTGACGCTGCTG`
satisfied

Next up: `CCGATTAACATCAGGGTATTCCATGATGTTAATCGGGTCTTGATTCGCTTGACGCTGCTG`
satisfied

Next up: `CCGATTAACATCAGGGGTTTCCATGATGTTAATCGGGTCTTGATTCGCTTGACGCTGCTG`
satisfied

----------
Molecular target: GST-Co-NF-kB (Capsaspora owczarzaki, UniProt F1ARL5 200-546)
Sequence: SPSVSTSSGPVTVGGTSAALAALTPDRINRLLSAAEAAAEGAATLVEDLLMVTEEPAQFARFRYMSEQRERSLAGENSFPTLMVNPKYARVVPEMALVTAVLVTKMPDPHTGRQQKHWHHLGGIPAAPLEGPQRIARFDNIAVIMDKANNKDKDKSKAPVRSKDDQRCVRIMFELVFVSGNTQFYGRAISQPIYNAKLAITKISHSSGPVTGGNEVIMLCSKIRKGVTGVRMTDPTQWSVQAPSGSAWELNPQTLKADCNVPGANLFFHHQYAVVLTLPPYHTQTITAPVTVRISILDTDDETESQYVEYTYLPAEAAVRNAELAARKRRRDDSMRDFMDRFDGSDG
Assay: protein-binding microarray (PBM); PBM: ~300 nM protein, 6 mM HEPES pH 7.8, 80 mM KCl, 0.5 mM EDTA, 0.5 mM EGTA, 6% glycerol, 35 ng/ul poly-dIdC, 1% milk, 1 h, room temperature; high values mean tight binding
Conditions: dsDNA, one strand shown
Response field class: enum, chosen by comparing binding signal against A = under 3 z-score, B = from 3 z-score up to 7 z-score, C = 7 z-score and over

Here's what some known entries look like.
1) CCGATTAACATCACCAAAACCCCTGATGTTAATCGGGTCTTGATTCGCTTGACGCTGCTG: A
2) CCGATTAACATCAAAATAACCCCTGATGTTAATCGGGTCTTGATTCGCTTGACGCTGCTG: B
3) CCGATTAACATCAGGAGACTCCCTGATGTTAATCGGGTCTTGATTCGCTTGACGCTGCTG: A

Okay, now this sequence:
Please indicate the class for `CCGATTAACATCAGGGGGATAGATGATGTTAATCGGGTCTTGATTCGCTTGACGCTGCTG` based on its binding signal.
B

----------
Biological target: GST-Nv-NF-kB (Cys allele) (Nematostella vectensis, UniProt E5G601 2-411)
Sequence: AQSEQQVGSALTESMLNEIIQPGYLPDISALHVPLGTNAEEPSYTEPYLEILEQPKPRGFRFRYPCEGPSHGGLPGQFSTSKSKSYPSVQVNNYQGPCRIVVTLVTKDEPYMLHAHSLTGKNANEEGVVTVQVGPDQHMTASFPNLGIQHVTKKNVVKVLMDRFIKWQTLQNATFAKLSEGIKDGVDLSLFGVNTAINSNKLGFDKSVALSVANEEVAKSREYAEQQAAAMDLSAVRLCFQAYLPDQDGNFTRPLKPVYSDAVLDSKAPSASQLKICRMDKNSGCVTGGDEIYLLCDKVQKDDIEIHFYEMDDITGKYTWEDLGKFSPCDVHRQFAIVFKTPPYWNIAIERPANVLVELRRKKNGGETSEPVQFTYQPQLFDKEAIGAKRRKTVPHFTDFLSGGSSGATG
Assay: protein-binding microarray (PBM); PBM: ~300 nM protein, 6 mM HEPES pH 7.8, 80 mM KCl, 0.5 mM EDTA, 0.5 mM EGTA, 6% glycerol, 35 ng/ul poly-dIdC, 1% milk, 1 h, room temperature; high values mean tight binding
Settings: dsDNA, one strand shown
assay_endpoint: binding signal (z-score)
Answers are plain numbers, in z-score.

A selection of reference data follows.
1) CCGATTAACATCAGGGGGAATAATGATGTTAATCGGGTCTTGATTCGCTTGACGCTGCTG: 7.85
2) CCGATTAACATCAGGGACCGCCCTGATGTTAATCGGGTCTTGATTCGCTTGACGCTGCTG: 3.55
3) CCGATTAACATCAGGGAATCACCTGATGTTAATCGGGTCTTGATTCGCTTGACGCTGCTG: 6.62
4) CCGATTAACATCACTAAACCCCCTGATGTTAATCGGGTCTTGATTCGCTTGACGCTGCTG: 4.83

# context switch: different sequence, same binding signal
Test system GST-Nv-NF-kB (Cys allele) (Nematostella vectensis, UniProt E5G601 2-411); read-out binding signal; what value for `CCGATTAACATCAGGAAGTTACCTGATGTTAATCGGGTCTTGATTCGCTTGACGCTGCTG` ?
1.29

----------
Field: binding signal. Provide a value for each of the sequences that follow.
Target: GST-Aq-NF-kB (Amphimedon queenslandica, UniProt A9Y5G7 2-389)
Sequence: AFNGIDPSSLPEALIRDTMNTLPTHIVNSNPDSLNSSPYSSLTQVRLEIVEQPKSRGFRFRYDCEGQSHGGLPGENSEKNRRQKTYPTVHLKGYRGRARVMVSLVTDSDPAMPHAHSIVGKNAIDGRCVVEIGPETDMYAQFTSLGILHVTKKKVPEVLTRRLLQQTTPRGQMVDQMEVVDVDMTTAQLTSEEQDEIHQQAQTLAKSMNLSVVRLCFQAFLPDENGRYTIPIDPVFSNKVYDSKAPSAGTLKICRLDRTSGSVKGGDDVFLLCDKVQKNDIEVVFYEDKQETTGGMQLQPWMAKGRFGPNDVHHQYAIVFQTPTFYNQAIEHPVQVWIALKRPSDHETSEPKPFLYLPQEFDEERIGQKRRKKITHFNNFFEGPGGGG
Experiment: protein-binding microarray (PBM); PBM: ~300 nM protein, 6 mM HEPES pH 7.8, 80 mM KCl, 0.5 mM EDTA, 0.5 mM EGTA, 6% glycerol, 35 ng/ul poly-dIdC, 1% milk, 1 h, room temperature; Ap Aiptasia and Nv Nematostella (sea anemones) / Co Capsaspora / Aq Amphimedon (sponge) / Dm Drosophila / Hu human; RHD is the Rel homology domain; high values mean tight binding
Details: dsDNA, one strand shown
One number for each entry, in z-score.

A selection of reference data follows.
1. CCGATTAACATCAAAAGGGGATATGATGTTAATCGGGTCTTGATTCGCTTGACGCTGCTG: 3.8
2. CCGATTAACATCATACAAGGGAGTGATGTTAATCGGGTCTTGATTCGCTTGACGCTGCTG: 2.84
3. CCGATTAACATCAACAACCCCCCTGATGTTAATCGGGTCTTGATTCGCTTGACGCTGCTG: 5.18
4. CCGATTAACATCACGGGATGTCCTGATGTTAATCGGGTCTTGATTCGCTTGACGCTGCTG: 3.06
5. CCGATTAACATCAGGGGGTAAGATGATGTTAATCGGGTCTTGATTCGCTTGACGCTGCTG: 3.34

For every item below, please supply its binding signal.
1. CCGATTAACATCACGGAATCTCCTGATGTTAATCGGGTCTTGATTCGCTTGACGCTGCTG
2. CCGATTAACATCAAGGAAAAGCCTGATGTTAATCGGGTCTTGATTCGCTTGACGCTGCTG
3. CCGATTAACATCAGGGGAACAACTGATGTTAATCGGGTCTTGATTCGCTTGACGCTGCTG

[2.17, 1.11, 5.43]
